Reported values of protein stability index for individual entries
B1: VAMP4 (parent)
chain: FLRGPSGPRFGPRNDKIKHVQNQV

variants of: B1; assay: protein stability index of a GFP-peptide fusion (GPS, HEK-293T) (PSI 1-6); higher = more stable; conditions: c terminus: a fixed tail appended;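 further: lentivirally expressed fusions sorted by FACS into six bins by GFP to DsRed ratio, PSI derived from sequencing read proportions per bin multiplied by bin number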
Field format: numeric only.

# annotated cases, reported protein stability index shown
# sequence-record, protein stability index
rows = [
    ("FLRGPSGPRFGPINDKIKHVQNQV [R13I]", 2.43),
    ("VLRGPSGPRFGPRNDKIKHVQNQV [F1V]", 3.43),
    ("FLRGPSGPRFGPRNDKIKHVGNQV [Q21G]", 2.55),
    ("FLKGPSGPRFGPRNDKIKHVQNQV [R3K]", 3.04),
    ("FLRGPSGPRFPPRNDKIKHVQNQV [G11P]", 2.91),
    ("FLRGPSGPRFGPRNDKISHVQNQV [K18S]", 3.11),
    ("FLRGISGPRFGPRNDKIKHVQNQV [P5I]", 2.17),
    ("WLRGPSGPRFGPRNDKIKHVQNQV [F1W]", 2.61),
]

// query Which protein stability index is listed for FLRSPSGPRFGPRNDKIKHVQNQV [G4S] ?
// result 3.06

// query Which protein stability index is listed for FLRTPSGPRFGPRNDKIKHVQNQV [G4T] ?
// result 3.17

// query Which protein stability index is listed for FLRGPSEPRFGPRNDKIKHVQNQV [G7E] ?
// result 2.79

// query Which protein stability index is listed for FLRGPSGPNFGPRNDKIKHVQNQV [R9N] ?
// result 3.01

// query Which protein stability index is listed for FLRGPSGPRFGPRNDKIKHHQNQV [V20H] ?
// result 3.3
